Measured pIC50 by item
# target-of-assay: T1, recombinant human DLL4 (C-terminally His-tagged extracellular domain, R&D Systems) (human, UniProt Q9NR61 25-522, biotinylated in the competition ELISA)
# T1 construct: also called rhDLL4; hDLL4
# T1 sequence (Q9NR61 25-522): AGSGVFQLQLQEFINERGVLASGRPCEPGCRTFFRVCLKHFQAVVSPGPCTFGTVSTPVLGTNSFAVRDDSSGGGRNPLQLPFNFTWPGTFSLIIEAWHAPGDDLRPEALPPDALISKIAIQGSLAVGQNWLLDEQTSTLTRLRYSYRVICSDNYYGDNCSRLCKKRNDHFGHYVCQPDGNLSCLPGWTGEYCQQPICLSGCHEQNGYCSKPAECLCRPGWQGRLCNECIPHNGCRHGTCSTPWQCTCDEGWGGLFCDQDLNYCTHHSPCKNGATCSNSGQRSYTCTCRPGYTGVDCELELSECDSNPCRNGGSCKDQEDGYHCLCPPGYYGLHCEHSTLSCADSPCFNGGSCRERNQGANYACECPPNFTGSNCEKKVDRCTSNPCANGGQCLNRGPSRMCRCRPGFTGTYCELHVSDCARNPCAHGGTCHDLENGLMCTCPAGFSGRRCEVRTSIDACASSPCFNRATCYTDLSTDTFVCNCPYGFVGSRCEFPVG
# assay-details: competition ELISA, biotinylated hDLL4 to coated hNotch1-Fc
Bear in mind: pIC50 is minus log10 of a mol/L concentration; give just that figure.

For DLLBII133A09 (VHH, not shown: small tags and cut ends) VHH: EVQLVESGGGLVQPGGSLRLSCAASGFTFGSYDMSWVRRSPGKGPEWVSAINSGGGSTYYADYVKGRFTISRDNAKNTLYLQMNSLKPEDTAVYYCAADRYIWARQGEYWGAYAYDYWGQGTQVTVSS , what is its reported pIC50?
8.82

For DLLBII129A03 (VHH, not shown: small tags and cut ends) VHH: EVQLVESGGGLVQAGGSLRLSCAASGRTFSSYAMAWFRQAPGKEREYVAAIRWSGGTAYYADSVQGRFTISRDNAKNTVYLQMNSLRPEDTAVYYCANRAPDTRLRPYLYDYWGQGTQVTVSS , what is its reported pIC50?
8.74

Attribution: patent US20140120095A1
